Assay summary: A549 lung cancer cell viability effects, profiling panel, resazurin fluorescence, 24 h, PK04 Diversity Set (AID 1171); further: test concentration not given here
Assay setup: higher = more signal, called active from +8 up or from −8 down
Binary call on z-score: met from 0.0002 upward, not met beneath that.

>  <Compound>
C=CCN1C(=O)[C@]2(O[C@H](CCn3cc(CCO)nn3)[C@@H]([Si](C)(C)c3ccc(OC)cc3)[C@@H]2C)c2cc(N3C(=O)c4cccc5cccc3c45)ccc21

>  <Group label>
not met

$$$$
>  <Compound>
CCOC(=O)CCN1C(=O)[C@H]2[C@H]3[C@H](O)[C@H](O)CC(=NNC(=O)OCC)[C@@H]3CC[C@H]2C1=O

>  <Group label>
not met

$$$$
>  <Compound>
CC(C)=NOCc1ccc(-c2cn([C@@H]3COC[C@H]3O)nn2)cc1

>  <Group label>
not met

$$$$
>  <Compound>
C=C(C)C(=O)OC[C@@H]1CN2[C@@H](CC[C@@H](C)[C@@H]2c2ccc(Br)cc2)C(=O)O1

>  <Group label>
met

$$$$
>  <Compound>
Cc1cc2c(nc1C)CCCN2CC(C)ON=C[C@@H](C)[C@H](OCc1ccccc1)C(C)C (stereo partly drawn)

>  <Group label>
not met

$$$$
>  <Compound>
CCOC(=O)[C@H](Cc1ccccc1)NC(=O)CCC1CC(OC(=O)NCc2cccc3ccccc23)CC2(CCCC(COC(=O)NCCCN3CCCC3=O)O2)O1 (stereo partly drawn)

>  <Group label>
met

$$$$
>  <Compound>
C[C@@H]1CC[C@@H](C(=O)O)N[C@H]1c1ccc(-c2ccco2)cc1

>  <Group label>
met

$$$$

src = PubChem BioAssay
